All figures here come from patent US12240815B2.

- studySystem: rat nNOS (Rattus norvegicus, UniProt P29476)
- Sequence (P29476 whole entry): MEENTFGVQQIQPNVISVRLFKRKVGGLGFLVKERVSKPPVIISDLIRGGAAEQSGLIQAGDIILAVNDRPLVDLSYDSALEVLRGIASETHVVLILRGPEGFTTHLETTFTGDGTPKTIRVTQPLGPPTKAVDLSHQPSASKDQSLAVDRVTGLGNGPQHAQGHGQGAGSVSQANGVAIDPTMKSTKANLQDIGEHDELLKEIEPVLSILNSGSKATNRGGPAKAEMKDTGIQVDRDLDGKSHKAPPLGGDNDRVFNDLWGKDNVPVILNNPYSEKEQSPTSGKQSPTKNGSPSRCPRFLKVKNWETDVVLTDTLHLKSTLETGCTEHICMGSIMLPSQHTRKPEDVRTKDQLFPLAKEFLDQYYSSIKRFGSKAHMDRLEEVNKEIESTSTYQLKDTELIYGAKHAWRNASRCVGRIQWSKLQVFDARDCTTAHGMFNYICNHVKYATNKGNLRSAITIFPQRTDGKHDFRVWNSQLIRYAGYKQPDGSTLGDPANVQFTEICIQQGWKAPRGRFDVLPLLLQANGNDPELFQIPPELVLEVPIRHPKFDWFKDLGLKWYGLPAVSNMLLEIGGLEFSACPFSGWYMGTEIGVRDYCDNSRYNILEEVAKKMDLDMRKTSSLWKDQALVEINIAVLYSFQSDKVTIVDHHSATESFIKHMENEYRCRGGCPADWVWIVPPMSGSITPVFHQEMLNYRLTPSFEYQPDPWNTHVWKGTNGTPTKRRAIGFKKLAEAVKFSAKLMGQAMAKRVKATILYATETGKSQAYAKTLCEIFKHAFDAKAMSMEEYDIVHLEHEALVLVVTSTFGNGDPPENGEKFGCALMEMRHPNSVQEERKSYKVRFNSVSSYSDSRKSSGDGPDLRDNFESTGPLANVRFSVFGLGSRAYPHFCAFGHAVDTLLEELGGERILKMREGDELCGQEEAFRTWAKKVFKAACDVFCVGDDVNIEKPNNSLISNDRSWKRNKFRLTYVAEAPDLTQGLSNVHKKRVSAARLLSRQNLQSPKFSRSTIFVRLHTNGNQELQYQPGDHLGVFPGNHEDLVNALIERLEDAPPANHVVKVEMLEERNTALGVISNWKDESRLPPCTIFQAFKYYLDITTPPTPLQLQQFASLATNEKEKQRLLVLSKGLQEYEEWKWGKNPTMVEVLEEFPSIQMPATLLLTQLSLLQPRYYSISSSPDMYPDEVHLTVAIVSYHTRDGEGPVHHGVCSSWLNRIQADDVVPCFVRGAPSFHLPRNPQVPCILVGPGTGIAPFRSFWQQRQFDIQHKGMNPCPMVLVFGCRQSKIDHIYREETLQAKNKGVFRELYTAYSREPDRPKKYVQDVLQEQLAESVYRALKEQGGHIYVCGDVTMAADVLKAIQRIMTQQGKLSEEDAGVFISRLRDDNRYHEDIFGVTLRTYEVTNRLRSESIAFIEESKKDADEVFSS
- procedureSummary: NO hemoglobin capture assay, rat nNOS
- Type: biochemical
- runParameters: Table 4; nNOS versus iNOS
I'd be grateful if you could share measured Selectivity n/i for these entries.
Numbers only.

Examples from the recorded data:
compound | quantitativeReadout
Cc1cc(N)nc(CCc2c(F)c(F)cc(CC[C@H]3CCCN3C)c2F)c1 [Compound 52] | 108
CNCc1ccc2ncc(CCc3cc(C)cc(N)n3)cc2c1 [Compound 49] | 99
CNC/C=C\c1cc(F)cc(CCc2cc(C)cc(N)n2)c1 [Compound 47] | 73

Now for the compound whose Selectivity n/i we want.
Qu. Quick check: Selectivity n/i of CNC/C=C/c1cc(F)cc(CCc2cc(C)cc(N)n2)c1 [Compound 48] ?
Ans. 130

---

- studySystem: human nNOS (Homo sapiens, UniProt P29475)
- Sequence (P29475 whole entry): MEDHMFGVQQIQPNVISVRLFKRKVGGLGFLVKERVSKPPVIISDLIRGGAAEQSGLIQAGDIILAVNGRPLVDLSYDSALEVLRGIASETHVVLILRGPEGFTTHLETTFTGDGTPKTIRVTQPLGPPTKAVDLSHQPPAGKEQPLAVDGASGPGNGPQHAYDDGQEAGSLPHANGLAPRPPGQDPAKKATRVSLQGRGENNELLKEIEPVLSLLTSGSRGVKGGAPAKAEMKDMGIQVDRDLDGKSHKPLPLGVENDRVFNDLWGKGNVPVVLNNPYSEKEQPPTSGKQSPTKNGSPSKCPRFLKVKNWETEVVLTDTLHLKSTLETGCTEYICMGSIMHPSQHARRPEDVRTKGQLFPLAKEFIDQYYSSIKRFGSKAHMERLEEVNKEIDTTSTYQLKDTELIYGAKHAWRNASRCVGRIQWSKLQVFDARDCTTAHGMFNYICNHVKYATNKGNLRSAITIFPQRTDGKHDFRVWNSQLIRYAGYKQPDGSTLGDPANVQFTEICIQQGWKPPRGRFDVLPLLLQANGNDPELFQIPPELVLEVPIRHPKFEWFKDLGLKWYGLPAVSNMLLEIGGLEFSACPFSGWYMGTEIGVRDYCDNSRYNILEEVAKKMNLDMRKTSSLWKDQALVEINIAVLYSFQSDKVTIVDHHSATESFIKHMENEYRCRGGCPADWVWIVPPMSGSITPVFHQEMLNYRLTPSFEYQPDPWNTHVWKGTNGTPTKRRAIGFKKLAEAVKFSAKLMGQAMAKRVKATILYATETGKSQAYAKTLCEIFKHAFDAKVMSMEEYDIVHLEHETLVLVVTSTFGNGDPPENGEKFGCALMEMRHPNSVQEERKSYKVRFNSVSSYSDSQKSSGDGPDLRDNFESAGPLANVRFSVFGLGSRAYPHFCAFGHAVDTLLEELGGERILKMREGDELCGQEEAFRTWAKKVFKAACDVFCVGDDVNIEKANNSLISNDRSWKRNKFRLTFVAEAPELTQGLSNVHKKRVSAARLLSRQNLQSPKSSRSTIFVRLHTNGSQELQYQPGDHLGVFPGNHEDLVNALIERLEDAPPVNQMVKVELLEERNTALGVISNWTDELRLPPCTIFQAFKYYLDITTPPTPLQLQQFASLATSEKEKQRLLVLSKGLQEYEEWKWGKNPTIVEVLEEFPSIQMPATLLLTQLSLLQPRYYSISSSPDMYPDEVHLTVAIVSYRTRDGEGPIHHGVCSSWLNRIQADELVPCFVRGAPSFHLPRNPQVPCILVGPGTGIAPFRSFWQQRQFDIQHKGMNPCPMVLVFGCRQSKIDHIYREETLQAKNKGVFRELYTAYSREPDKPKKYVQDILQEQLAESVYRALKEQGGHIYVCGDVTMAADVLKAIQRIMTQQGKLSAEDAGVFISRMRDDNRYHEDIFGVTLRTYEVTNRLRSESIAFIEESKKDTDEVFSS
- procedureSummary: NO hemoglobin capture assay, human nNOS
- Format: biochemical
- runParameters: Table 4
For each of the compounds below, state its Selectivity nNOS human/rat.
Give bare numbers.

Observe how each entry below is paired with its result.
smilesNotation | observedProperty | quantitativeReadout
Cc1cc(N)nc(CCc2c(F)c(F)cc(CC[C@@H]3CCCN3C)c2F)c1 | Selectivity nNOS human/rat | 1.7
CNC/C=C\c1cc(F)cc(CCc2cc(C)cc(N)n2)c1 | Selectivity nNOS human/rat | 2.5

Consider now this further compound.
Qu. Can you look up the measured Selectivity nNOS human/rat of CNCC#Cc1cc(F)c(F)c(CCc2cc(C)cc(N)n2)c1F for me?
Ans. 1.4

---

- studySystem: rat nNOS (Rattus norvegicus)
- procedureSummary: NO hemoglobin capture assay, rat nNOS
- Format: biochemical
- runParameters: pH 7.4; read-out: Ki rat nNOS
observedProperty: pKi
Answers are plain numbers, as −log10 of the molar value.

smilesNotation | pKi
Cc1cc(N)nc(CCc2cc(F)cc(CC[C@@H]3C[C@H](F)CN3)c2)c1 | 7.19
Cc1cc(N)nc(CCc2c(F)c(F)cc(CCCN(C)C)c2F)c1 | 7.33
Cc1cc(N)nc(CCc2cc(F)cc(CC[C@H]3CCCN3C)c2)c1 | 7.48
Cc1cc(N)nc(CCc2cc(F)cc(CC[C@@H]3CCCN3C)c2)c1 | 7.59
CNCC#Cc1cc(F)cc(CCc2cc(C)cc(N)n2)c1 | 7.49

Turning now to a further record.
Qu. Given the compound Cc1cc(N)nc(CCc2cc(CCCN(C)C)cc(F)c2F)c1 , what is its reported pKi?
Ans. 7.72
